All values here come from patent US12383533B2.

Please provide measured percent inhibition of cell viability at 4 µM for the entries that follow.
test system: A2780 cells; assay: Cell Viability Assay (ATPlite 1step), A2780; assay type: cell-based; settings: Homo sapiens; A2780, 4 uM compound, 72 hours; read-out: Cell Viability % inhibition A2780 (4 uM Cpd)
Give bare numbers, in %.

Completed entries (count: 6):
Look up percent inhibition of cell viability at 4 µM of O=C(Nc1ccc(-c2ccco2)cn1)c1cncnc1 and report it.
84

Look up percent inhibition of cell viability at 4 µM of O=C(Nc1ccc(-c2cccc(OC3CC3)c2)cn1)c1cncnc1 and report it.
76

Look up percent inhibition of cell viability at 4 µM of Cc1ccc(C(=O)Nc2ccc(-c3cccc(C4CC4)c3)cn2)cn1 and report it.
70.6

Look up percent inhibition of cell viability at 4 µM of Cc1ncc(C(=O)Nc2ncc(-c3ccsc3)cc2F)cn1 and report it.
84.7

Look up percent inhibition of cell viability at 4 µM of Cc1ccc(C(=O)Nc2ccc(-c3cccc(NC4CC4)c3)cn2)cn1 and report it.
69.5

Look up percent inhibition of cell viability at 4 µM of O=C(Nc1ccc(-c2cccc(-c3ccccc3)c2)cn1)c1cncnc1 and report it.
61

List reported percent inhibition of cell viability at 4 µM for each of these compounds:
1. Cc1ncc(C(=O)Nc2ccc(-c3cc(Cl)cc(N4CCN(C)CC4)c3)c(C)n2)cn1
2. Cc1ccc(C(=O)Nc2ccc(-c3cccc(OC4CC4)c3)cn2)cn1
3. Cc1ncc(C(=O)Nc2ccc(-c3cc(O)cc(C4CC4)c3)cn2)cn1

1. 79.2
2. 74.4
3. 85.9

###

test system: porcine neuronal tubulin; experiment: Tubulin Polymerization Assay; type: biochemical; settings: porcine tubulin 2.0 mg/ml, 37° C., fluorescence; read-out: IC50 (tubulin polymerization, from Vmax)
RECORDED METRIC: IC50

Look up IC50 of Cc1ncc(C(=O)Nc2ccc(-c3cccc(S(=O)(=O)C4CC4)c3)cn2)cn1 and report it.
0.24 µM

Look up IC50 of Cc1ncc(C(=O)Nc2ccc(-c3cccc(S(=O)(=O)C4CC4)c3)c(C)n2)cn1 and report it.
0.12 µM

Look up IC50 of O=C(Nc1ccc(-c2cccc(C3CC3)c2)cn1)c1cncnc1 and report it.
0.48 µM

Look up IC50 of Cc1ncc(C(=O)Nc2ccc(-c3cccc(NC4CC4)c3)cn2)cn1 and report it.
0.32 µM

Look up IC50 of Cc1ncc(C(=O)Nc2ccc(-c3cccc(OC4CC4)c3)cn2)cn1 and report it.
0.68 µM

List reported IC50 for each of these compounds:
1. Cc1ncc(C(=O)Nc2ccc(-c3cccc(C4CC4)c3)cn2)cn1
2. CC[C@]1(O)C[C@@H]2CN(CCc3c([nH]c4ccccc34)[C@@](C(=O)OC)(c3cc4c(cc3OC)N(C)[C@H]3[C@@](O)(C(=O)OC)[C@H](OC(C)=O)[C@]5(CC)C=CCN6CC[C@]43[C@@H]65)C2)C1 [Vinblastine, reference compound]
3. Cc1ncc(C(=O)Nc2ncc(-c3ccsc3)cc2F)cn1

0.89 µM
0.2 µM
2.35 µM

###

Please provide measured percent inhibition of cell viability at 20 µM for the entries that follow.
tested on: A2780 cells; assay: Cell Viability Assay (ATPlite 1step), A2780; type: cell-based; settings: Homo sapiens; A2780, 20 uM compound, 72 hours; read-out: Cell Viability % inhibition A2780 (20 uM Cpd)
One number for each entry, in %.

Completed entries (count: 6):
Look up percent inhibition of cell viability at 20 µM of O=C(Nc1ccc(-c2cccc(-c3ccccc3)c2)cn1)c1cncnc1 [Compound 40] and report it.
72

Look up percent inhibition of cell viability at 20 µM of O=C(Nc1ccc(-c2cccc(Cl)c2)cn1)c1cncnc1 [Compound 3] and report it.
90.2

Look up percent inhibition of cell viability at 20 µM of COc1ccc(Cl)cc1-c1ccc(NC(=O)c2cncnc2)nc1 [Compound 21] and report it.
62.4

Look up percent inhibition of cell viability at 20 µM of Cc1ncc(C(=O)Nc2ccc(-c3cccc(OC4CC4)c3)cn2)cn1 [Compound 27] and report it.
77.4

Look up percent inhibition of cell viability at 20 µM of COc1ncc(C(=O)Nc2ccc(-c3cccc(C4CC4)c3)cn2)cn1 [Compound 59] and report it.
90.4

Look up percent inhibition of cell viability at 20 µM of O=C(Nc1ccc(-c2cccc(C3CC3)c2)cn1)c1cnc(O)nc1 [Compound 60] and report it.
83.7

List reported percent inhibition of cell viability at 20 µM for each of these compounds:
1. Cc1ncc(C(=O)Nc2ncc(-c3cccc(NC4CC4)c3)cc2F)cn1 [Compound 68]
2. Cc1ccc(C(=O)Nc2ccc(-c3cccc(N4CCN(C)CC4)c3)cn2)cn1 [Compound 37]
3. O=C(Nc1ccc(-c2cccc(C3CC3)c2)cn1)c1cccnc1 [Compound 24]

89
70.8
72.2
